test system: Epidermal growth factor receptor (Homo sapiens), P00533 [L861Q]; conditions: at 0.1 µM
Sequence (P00533 whole entry L861Q): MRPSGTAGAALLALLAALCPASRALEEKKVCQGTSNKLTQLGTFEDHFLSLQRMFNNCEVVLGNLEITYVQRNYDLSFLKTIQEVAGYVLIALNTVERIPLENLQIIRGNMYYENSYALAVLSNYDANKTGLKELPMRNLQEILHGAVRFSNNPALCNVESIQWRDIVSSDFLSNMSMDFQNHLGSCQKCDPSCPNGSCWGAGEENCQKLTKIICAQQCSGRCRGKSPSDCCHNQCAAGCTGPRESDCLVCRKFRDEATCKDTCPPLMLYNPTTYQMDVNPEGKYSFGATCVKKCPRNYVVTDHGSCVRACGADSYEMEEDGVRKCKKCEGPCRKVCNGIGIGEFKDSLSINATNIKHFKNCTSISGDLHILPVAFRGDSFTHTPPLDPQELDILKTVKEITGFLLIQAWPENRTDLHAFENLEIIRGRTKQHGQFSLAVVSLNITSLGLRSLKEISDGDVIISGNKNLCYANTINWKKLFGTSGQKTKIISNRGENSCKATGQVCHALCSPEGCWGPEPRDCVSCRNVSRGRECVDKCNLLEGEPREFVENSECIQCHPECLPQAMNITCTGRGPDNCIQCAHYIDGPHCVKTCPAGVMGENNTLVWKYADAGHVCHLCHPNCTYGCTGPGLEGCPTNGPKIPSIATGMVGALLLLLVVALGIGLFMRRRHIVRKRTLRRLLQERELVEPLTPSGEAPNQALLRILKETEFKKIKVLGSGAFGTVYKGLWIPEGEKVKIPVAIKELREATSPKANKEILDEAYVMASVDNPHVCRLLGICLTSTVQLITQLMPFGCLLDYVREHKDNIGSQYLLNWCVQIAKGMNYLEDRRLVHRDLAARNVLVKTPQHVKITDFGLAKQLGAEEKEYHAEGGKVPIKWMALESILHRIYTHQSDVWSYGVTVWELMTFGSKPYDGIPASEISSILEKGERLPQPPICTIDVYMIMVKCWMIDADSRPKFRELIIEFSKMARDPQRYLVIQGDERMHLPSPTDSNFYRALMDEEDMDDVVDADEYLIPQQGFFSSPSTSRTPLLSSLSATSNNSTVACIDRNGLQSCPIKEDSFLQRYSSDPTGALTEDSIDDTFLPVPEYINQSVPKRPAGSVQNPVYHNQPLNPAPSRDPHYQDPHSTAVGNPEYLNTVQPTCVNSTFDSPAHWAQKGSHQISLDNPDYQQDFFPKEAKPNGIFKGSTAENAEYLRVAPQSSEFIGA
Please provide measured inhibition for the entries that follow.
Answers are plain numbers, in %.

Worked cases, answers included:
CCn1c(-c2nonc2N)nc2c(C#CC(C)(C)O)nc(OCCNC)cc21; 1.91
c1ccc(Cc2nc3ccc(Nc4ncnc5ccccc45)cc3[nH]2)cc1; 12
Nc1nccc(-c2c(-c3ccc(F)cc3)ncn2CCCN2CCOCC2)n1; 4.34
COC(=O)Nc1nc2cc(Oc3ccc(NC(=O)Nc4cccc(Br)c4)cc3)ccc2[nH]1; 3.01

Then there is this compound:
Challenge: Name the recorded inhibition for O=C1Nc2ccc(-c3cccnc3)cc2C1=Cc1cc(Br)c(O)c(Br)c1 .
Response given: 2.92
